Here the recorded Relative K′ of bis-ANS (Hill Eq.), normalized to wild-type is given for each entry.
experiment.description: bis-ANS fluorescence titration of receptor ECDs
Assay type: binding
stated.conditions: value in parenthesis
Enter a number only.

Return Relative K′ of bis-ANS (Hill Eq.), normalized to wild-type for the following molecule: Y40Q: BMPR-II ECD single-amino-acid-substitution mutant Y40Q (protein, left off: TRX, N-terminal, cleaved | His6, C-terminal, state not stated) ASQNQERLCAFKDPQQQDLGIGESRISHENGTILCSKGSTCYGLWEKSKGDINLVKQGCWSHIGDPQECHYEECVVTTTPPSIQNGTYRFCCCSTDLCNVNFTENFPPPDTTPLSPPHSFNRDET
2.4

Return Relative K′ of bis-ANS (Hill Eq.), normalized to wild-type for the following molecule: Y40G: BMPR-II ECD single-amino-acid-substitution mutant Y40G (protein, left off: TRX, N-terminal, cleaved | His6, C-terminal, state not stated) ASQNQERLCAFKDPGQQDLGIGESRISHENGTILCSKGSTCYGLWEKSKGDINLVKQGCWSHIGDPQECHYEECVVTTTPPSIQNGTYRFCCCSTDLCNVNFTENFPPPDTTPLSPPHSFNRDET
0.3

Return Relative K′ of bis-ANS (Hill Eq.), normalized to wild-type for the following molecule: ActR-IIB Wild type: human recombinant ActR-IIB receptor extracellular domain (ECD), wild type, expressed in E. coli (protein, UniProt Q13705 19-137, looked up, extracellular domain) extracellular domain: SGRGEAETRECIYYNANWELERTNQSGLERCEGEQDKRLHCYASWRNSSGTIELVKKGCWLDDFNCYDRQECVATEENPQVYFCCCEGNFCNERFTHLPEAGGPEVTYEPPPTAPTLLT
1.0
